method.summary: Clearance in Sprague-Dawley rat at 1 mg/kg, iv
Format: ADME, organism-based
measurement.parameters: in vivo
compounds and their reported clearance
// return numeric value only (unit: L/h/kg, not printed)

{"molecule.smiles": "CN(Cc1ccc(F)cc1)c1ccc2c(C(F)(F)F)cc(=O)oc2c1", "measurement.units": "L/h/kg", "value.measured": 2.46}

Enquiry: Note clearance for the compound shown: "CN(Cc1ccc(Cl)cc1)c1ccc2c(C(F)(F)F)cc(=O)oc2c1"
Return: 0.98

Enquiry: Note clearance for the compound shown: "O=c1cc(C(F)(F)F)c2ccc(NCc3ccc(Cl)cc3)cc2o1"
Return: 5.86

Enquiry: Note clearance for the compound shown: "O=c1cc(C(F)(F)F)c2ccc(NCc3ccc(F)cc3)cc2o1"
Return: 30.4

###

measured.on: Mineralocorticoid receptor (Homo sapiens, UniProt P08235)
Sequence (P08235 whole entry): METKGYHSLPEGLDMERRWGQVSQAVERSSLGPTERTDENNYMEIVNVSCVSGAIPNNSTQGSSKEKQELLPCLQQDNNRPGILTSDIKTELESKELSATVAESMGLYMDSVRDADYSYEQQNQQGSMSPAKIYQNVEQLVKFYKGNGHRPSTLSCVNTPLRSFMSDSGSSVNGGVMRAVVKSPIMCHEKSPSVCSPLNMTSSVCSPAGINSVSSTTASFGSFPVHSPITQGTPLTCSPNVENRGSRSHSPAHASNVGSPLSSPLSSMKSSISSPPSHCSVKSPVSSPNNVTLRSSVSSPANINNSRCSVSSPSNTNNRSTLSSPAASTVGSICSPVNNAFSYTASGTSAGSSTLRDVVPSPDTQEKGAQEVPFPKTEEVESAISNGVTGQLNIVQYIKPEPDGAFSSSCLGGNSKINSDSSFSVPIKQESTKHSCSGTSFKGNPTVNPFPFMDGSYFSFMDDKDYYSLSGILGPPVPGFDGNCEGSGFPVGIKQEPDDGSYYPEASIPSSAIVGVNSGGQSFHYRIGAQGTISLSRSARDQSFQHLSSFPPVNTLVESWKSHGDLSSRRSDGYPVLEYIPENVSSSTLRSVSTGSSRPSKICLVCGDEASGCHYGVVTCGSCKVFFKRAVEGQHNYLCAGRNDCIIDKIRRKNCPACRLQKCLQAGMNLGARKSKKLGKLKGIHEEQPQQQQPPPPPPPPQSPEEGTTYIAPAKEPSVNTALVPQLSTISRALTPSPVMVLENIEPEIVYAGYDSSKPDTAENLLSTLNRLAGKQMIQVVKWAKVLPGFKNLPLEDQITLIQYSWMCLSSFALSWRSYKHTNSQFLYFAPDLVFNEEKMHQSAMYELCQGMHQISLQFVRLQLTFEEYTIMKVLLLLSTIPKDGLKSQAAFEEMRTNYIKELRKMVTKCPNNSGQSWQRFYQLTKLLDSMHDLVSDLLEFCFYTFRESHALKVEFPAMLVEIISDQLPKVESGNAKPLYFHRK
method.summary: Antagonist activity at aldosterone-induced Mineralocorticoid receptor (unknown origin) transfected in HEK293T cells by Dual-Luciferase Reporter assay
assay.endpoint: pIC50
// returns pIC50 (minus log10 of molar concentration), number only

Enquiry: Note pIC50 for the molecule shown: "C[C@]12CCC(=O)C[C@@H]1CC[C@@H]1[C@@H]2CC[C@]2(C)[C@@H](O)CC[C@@H]12"
Return: 8.91

###

method.summary: Apparent volume of distribution in Sprague-Dawley rat at 1 mg/kg, iv
Format: ADME, organism-based
measurement.parameters: in vivo, read-out: Vz
assay.endpoint: Vd (L/kg)
// return numeric value only (unit: L/kg, not printed)

{"molecule.smiles": "CN(Cc1ccc(F)cc1)c1ccc2c(C(F)(F)F)cc(=O)oc2c1", "measurement.units": "L/kg", "Vd": 1.81}

Enquiry: Note Vd for the compound shown: "O=c1cc(C(F)(F)F)c2ccc(NCc3ccc(F)cc3)cc2o1"
Return: 9.26

Enquiry: Note Vd for the compound shown: "O=c1cc(C(F)(F)F)c2ccc(NCc3ccc(Cl)cc3)cc2o1"
Return: 2.3

Enquiry: Note Vd for the compound shown: "CN(Cc1ccc(Cl)cc1)c1ccc2c(C(F)(F)F)cc(=O)oc2c1"
Return: 27.8

###

method.summary: Cmax in Sprague-Dawley rat at 5 mg/kg, po
Format: ADME, organism-based
measurement.parameters: in vivo
molecules and their reported Cmax
// return numeric value only (unit: ng/mL, not printed)

{"molecule.smiles": "CN(Cc1ccc(F)cc1)c1ccc2c(C(F)(F)F)cc(=O)oc2c1", "Cmax [ng/mL]": 353}

Enquiry: Note Cmax for the molecule shown: "O=c1cc(C(F)(F)F)c2ccc(NCc3ccc(Cl)cc3)cc2o1"
Return: 258

Enquiry: Note Cmax for the molecule shown: "CN(Cc1ccc(Cl)cc1)c1ccc2c(C(F)(F)F)cc(=O)oc2c1"
Return: 139

Enquiry: Note Cmax for the molecule shown: "O=c1cc(C(F)(F)F)c2ccc(NCc3ccc(F)cc3)cc2o1"
Return: 10.8

###

method.summary: Half life in Sprague-Dawley rat at 1 mg/kg, iv
Type: ADME, organism-based
measurement.parameters: in vivo
assay.endpoint: half-life (min)
// return numeric value only (unit: min, not printed)

{"molecule.smiles": "CN(Cc1ccc(Cl)cc1)c1ccc2c(C(F)(F)F)cc(=O)oc2c1", "value.measured": 1190}
{"molecule.smiles": "CN(Cc1ccc(F)cc1)c1ccc2c(C(F)(F)F)cc(=O)oc2c1", "value.measured": 30}
{"molecule.smiles": "O=c1cc(C(F)(F)F)c2ccc(NCc3ccc(Cl)cc3)cc2o1", "value.measured": 16.2}

Attention now turns to another entry.
Enquiry: Note half-life for the compound shown: "O=c1cc(C(F)(F)F)c2ccc(NCc3ccc(F)cc3)cc2o1"
Return: 12.6

Data origin, for the record: ChEMBL document CHEMBL6127118
